meta.source: patent US20170190671A1

- System: oilseed rape (Brassica napus)
- Procedure Details: Test C postemergence
- Assay type: in vivo
- Protocol Conditions: Brassica napus, post-emergence; Postemergence, 31 g ai/ha, scale 0 to 100; read-out: Plant response rating, Oilseed Rape
- Excerpt: […]
Attribute Measured: plant injury at 31 g/ha (%)
// units = %; emit number, no label

Some entries whose results are on file:
{"Given Smiles": "Fc1cccc(Oc2ncc(Cl)cn2)c1Oc1ncc(C(F)(F)F)cn1", "Attribute Measured": "plant injury at 31 g/ha", "Obs Value": 50}
{"Given Smiles": "Fc1cnc(Oc2c(Cl)cccc2Oc2ncc(Cl)cn2)nc1", "Attribute Measured": "plant injury at 31 g/ha", "Obs Value": 20}
{"Given Smiles": "Fc1cnc(Oc2c(Br)cccc2Oc2ncc(Cl)cn2)nc1", "Attribute Measured": "plant injury at 31 g/ha", "Obs Value": 40}
{"Given Smiles": "N#Cc1cccc(Oc2ncc(Cl)cn2)c1Oc1cnc(Cl)cn1", "Attribute Measured": "plant injury at 31 g/ha", "Obs Value": 80}
{"Given Smiles": "N#Cc1cccc(Oc2ncc(Cl)cn2)c1Oc1ccc(Cl)cc1", "Attribute Measured": "plant injury at 31 g/ha", "Obs Value": 85}

Reported plant injury at 31 g/ha, compound N#Cc1cccc(Oc2ncc(C(F)(F)F)cn2)c1Oc1ncc(Cl)cn1 : ____ 5

What about this compound? Clc1cnc(Oc2cccc(Cl)c2Oc2ncc(Br)cn2)nc1 50

* * *

- System: Italian ryegrass (Lolium multiflorum)
- Procedure Details: Test A postemergence
- Format: in vivo
- Protocol Conditions: 125 g ai/ha, 0 to 100 scale
Attribute Measured: Plant response rating, Ryegrass, Italian
Just the number, please.

Example results:
{"Given Smiles": "FC(F)(F)c1cnc(Oc2c(Br)cccc2Oc2ncc(Cl)cn2)s1", "Attribute Measured": "Plant response rating, Ryegrass, Italian", "Obs Value": 50}
{"Given Smiles": "Fc1ccc(F)c(Oc2ncc(C(F)(F)F)cn2)c1Oc1ncc(C(F)(F)F)cn1", "Attribute Measured": "Plant response rating, Ryegrass, Italian", "Obs Value": 0}
{"Given Smiles": "N#Cc1cccc(Oc2ncc(Cl)cn2)c1Oc1ccc(C(F)(F)F)nn1", "Attribute Measured": "Plant response rating, Ryegrass, Italian", "Obs Value": 0}
{"Given Smiles": "N#Cc1cccc(Oc2ncc(Cl)cn2)c1Oc1ccc(C(F)(F)F)cn1", "Attribute Measured": "Plant response rating, Ryegrass, Italian", "Obs Value": 0}

Okay, now this compound:
Entry Fc1ccc(F)c(Oc2ncc(C(F)(F)F)cn2)c1Oc1ncc(Cl)cn1 has what Plant response rating, Ryegrass, Italian? 50

* * *

Parameter: Plant response rating, Ragweed. Scope: all listed entries.
- Tested on: ragweed (common ragweed, Ambrosia elatior)
- Procedure Details: Test A postemergence
- Assay type: in vivo
- Protocol Conditions: 31 g ai/ha, 0 to 100 scale
Response field accepts a number only; no unit should be typed.

The examples below pair each entry with its known result.
{"Given Smiles": "N#Cc1cccc(Oc2ncc(Cl)cn2)c1Oc1ccc(OC(F)(F)F)cc1", "Plant response rating, Ragweed": 0}
{"Given Smiles": "Fc1ccc(F)c(Oc2ncc(C(F)(F)F)cn2)c1Oc1ncc(Cl)cn1", "Plant response rating, Ragweed": 20}
{"Given Smiles": "N#Cc1cccc(Oc2ncc(C(F)(F)F)cn2)c1Oc1ncc(C(F)(F)F)cn1", "Plant response rating, Ragweed": 10}

Now let's try a different one.
// map N#Cc1cccc(Oc2ncc(Cl)cn2)c1Oc1ccc(C(F)(F)F)nn1 to recorded Plant response rating, Ragweed (system: ragweed (common ragweed, Ambrosia elatior)) 30
